assay: Cmax in Sprague-Dawley rat at 10 mg/kg, po; format: ADME, organism-based; set-up: dose 10 mg/kg, route oral; settings: in vivo
Please provide measured log10 of Cmax for the entries that follow.
Annotation: log10 of Cmax, nM basis.

Take each entry in turn and give its log10 of Cmax.
1. Cc1c(N2C(=O)N3CC[C@@H](O)[C@H]3[C@H]2C(F)(F)F)ccc(C#N)c1Cl
2. Cc1c(N2C(=O)N3CC[C@H](O)[C@H]3[C@@H]2C)ccc(C#N)c1Cl
3. Cc1c(N2C(=O)N3CC[C@@H](O)[C@H]3[C@@H]2C(F)(F)F)ccc(C#N)c1Cl
4. Cc1c(N2C(=O)[C@@H]3[C@H](O)CCN3C2=O)ccc(C#N)c1Cl
5. CC[C@H]1[C@@H]2[C@@H](O)CCN2C(=O)N1c1ccc(C#N)c(Cl)c1C
6. Cc1c(N2C[C@@H]3[C@H](O)CCN3C2=O)ccc(C#N)c1Cl

Result ::
2.39
3.21
2.91
3.84
3.49
3.60
